Examples of binders with documented EC50 of hC3 cleavage follow.
Target: plasma purified human complement protein C3 (human) (UniProt P01024)
Sequence (P01024 23-667, chain 1 of 2): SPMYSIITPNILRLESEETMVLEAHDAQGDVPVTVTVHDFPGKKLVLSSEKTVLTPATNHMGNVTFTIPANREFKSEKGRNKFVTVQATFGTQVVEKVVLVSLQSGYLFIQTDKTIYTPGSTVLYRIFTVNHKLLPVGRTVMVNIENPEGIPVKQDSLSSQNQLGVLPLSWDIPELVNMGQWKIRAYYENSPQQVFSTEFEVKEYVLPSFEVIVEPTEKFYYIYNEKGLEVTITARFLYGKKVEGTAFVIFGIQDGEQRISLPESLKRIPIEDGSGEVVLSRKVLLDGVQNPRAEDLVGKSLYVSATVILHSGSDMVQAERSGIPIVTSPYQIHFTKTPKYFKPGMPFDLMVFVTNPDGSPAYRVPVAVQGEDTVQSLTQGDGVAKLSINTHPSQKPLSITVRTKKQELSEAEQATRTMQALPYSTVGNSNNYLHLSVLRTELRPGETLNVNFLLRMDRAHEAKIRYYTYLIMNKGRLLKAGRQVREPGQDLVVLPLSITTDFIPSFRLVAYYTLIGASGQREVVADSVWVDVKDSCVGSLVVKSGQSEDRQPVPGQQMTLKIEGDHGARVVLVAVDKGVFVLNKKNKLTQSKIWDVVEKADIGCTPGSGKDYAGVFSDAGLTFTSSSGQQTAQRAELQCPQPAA
Sequence (P01024 672-1663, chain 2 of 2): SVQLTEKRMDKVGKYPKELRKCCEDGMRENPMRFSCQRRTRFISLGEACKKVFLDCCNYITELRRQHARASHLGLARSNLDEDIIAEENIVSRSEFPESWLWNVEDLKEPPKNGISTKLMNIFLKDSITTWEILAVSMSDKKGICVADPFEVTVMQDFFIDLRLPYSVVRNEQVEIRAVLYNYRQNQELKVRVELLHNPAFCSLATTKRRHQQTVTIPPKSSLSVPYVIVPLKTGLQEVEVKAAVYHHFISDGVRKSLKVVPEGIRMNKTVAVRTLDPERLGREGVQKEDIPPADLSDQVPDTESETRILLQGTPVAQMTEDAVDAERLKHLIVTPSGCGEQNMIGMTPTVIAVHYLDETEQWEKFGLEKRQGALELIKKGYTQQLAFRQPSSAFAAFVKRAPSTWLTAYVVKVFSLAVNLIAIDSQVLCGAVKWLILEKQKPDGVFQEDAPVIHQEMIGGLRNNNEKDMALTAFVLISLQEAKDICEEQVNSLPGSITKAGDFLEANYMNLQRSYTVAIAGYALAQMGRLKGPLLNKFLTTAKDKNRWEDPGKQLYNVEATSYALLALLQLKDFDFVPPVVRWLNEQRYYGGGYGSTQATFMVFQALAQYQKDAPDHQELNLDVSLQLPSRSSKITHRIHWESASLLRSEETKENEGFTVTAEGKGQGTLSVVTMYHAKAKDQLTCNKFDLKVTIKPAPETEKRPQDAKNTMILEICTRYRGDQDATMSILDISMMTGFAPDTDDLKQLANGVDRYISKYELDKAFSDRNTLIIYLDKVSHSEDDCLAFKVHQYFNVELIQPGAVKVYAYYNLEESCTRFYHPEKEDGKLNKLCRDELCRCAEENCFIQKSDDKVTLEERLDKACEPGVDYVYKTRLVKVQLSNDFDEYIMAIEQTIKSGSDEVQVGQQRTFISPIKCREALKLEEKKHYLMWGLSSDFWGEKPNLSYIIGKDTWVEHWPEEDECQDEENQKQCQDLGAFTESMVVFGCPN
Experiment: cell-based or functional assay
Just the number please, in nM, no unit attached.

MTSP-1 Y59F/G60dS/R84H/ins97aE/F97T/T98G/F99L/C122S/Q175L/Q192E/V212I (enzyme) VVGGTDADEGEWPWQVSLHALGQGHICGASLISPNWLVSAAHCFIDDRSFRYSDPTQWTAFLGLHDQSQRSAPGVQERHLKRIISHPFFNDTEGLDYDIALLELEKPAEYSSMVRPISLPDASHVFPAGKAIWVTGWGHTQYGGTGALILQKGEIRVINQTTCENLLPQLITPRMMCVGFLSGGVDSCEGDSGGPLSSVEADGRIFQAGIVSWGDGCAQRNKPGVYTRLPLFRDWIKENTGV    102
MTSP-1 H40R/I41H/F97D/F99L/C122S/G151N/Q175L/Q192A/D217N/K224R (enzyme) VVGGTDADEGEWPWQVSLHALGQGRHCGASLISPNWLVSAAHCYIDDRGFRYSDPTQWTAFLGLHDQSQRSAPGVQERRLKRIISHPFFNDDTLDYDIALLELEKPAEYSSMVRPISLPDASHVFPAGKAIWVTGWGHTQYGGTNALILQKGEIRVINQTTCENLLPQLITPRMMCVGFLSGGVDSCAGDSGGPLSSVEADGRIFQAGVVSWGNGCAQRNRPGVYTRLPLFRDWIKENTGV    540
MTSP-1 I41R/ins97aE/F97T/T98G/F99L/C122S/G151N/Q175L/Q192D (enzyme) VVGGTDADEGEWPWQVSLHALGQGHRCGASLISPNWLVSAAHCYIDDRGFRYSDPTQWTAFLGLHDQSQRSAPGVQERRLKRIISHPFFNDTEGLDYDIALLELEKPAEYSSMVRPISLPDASHVFPAGKAIWVTGWGHTQYGGTNALILQKGEIRVINQTTCENLLPQLITPRMMCVGFLSGGVDSCDGDSGGPLSSVEADGRIFQAGVVSWGDGCAQRNKPGVYTRLPLFRDWIKENTGV    622
MTSP-1 H40R/I41H/F97D/F99L/C122S/Q175L/Q192G/D217K/K224A (enzyme) VVGGTDADEGEWPWQVSLHALGQGRHCGASLISPNWLVSAAHCYIDDRGFRYSDPTQWTAFLGLHDQSQRSAPGVQERRLKRIISHPFFNDDTLDYDIALLELEKPAEYSSMVRPISLPDASHVFPAGKAIWVTGWGHTQYGGTGALILQKGEIRVINQTTCENLLPQLITPRMMCVGFLSGGVDSCGGDSGGPLSSVEADGRIFQAGVVSWGKGCAQRNAPGVYTRLPLFRDWIKENTGV    14.1

Now for a further binder.
# input binder: MTSP-1 C122S/G151N/G193A (enzyme) VVGGTDADEGEWPWQVSLHALGQGHICGASLISPNWLVSAAHCYIDDRGFRYSDPTQWTAFLGLHDQSQRSAPGVQERRLKRIISHPFFNDFTFDYDIALLELEKPAEYSSMVRPISLPDASHVFPAGKAIWVTGWGHTQYGGTNALILQKGEIRVINQTTCENLLPQQITPRMMCVGFLSGGVDSCQADSGGPLSSVEADGRIFQAGVVSWGDGCAQRNKPGVYTRLPLFRDWIKENTGV ; wanted: its EC50 of hC3 cleavage
85.7
